Where do these numbers come from? They come from ChEMBL document CHEMBL3621039.

# Organism: Oryctolagus cuniculus
# procedure summary: Antagonist activity against L-type calcium channel in New Zealand white rabbit basilar artery assessed as vasodilation by measuring effect on 50 mM K+-stimulated depolarization-induced constriction at 10 uM
# Format: tissue-based
# Parameters: scale not given: the % may be the effect or the level left
Activity values by entry

- smiles repr: "COc1cc(/C=C/C(=O)c2cccc(NS(=O)(=O)c3ccc(C(C)=O)cc3)c2)ccc1O"
  Activity [%]: 67.9
- smiles repr: "COc1cc(/C=C/C(=O)c2cccc(NS(=O)(=O)C(C)C)c2)ccc1O"
  Activity [%]: 20.5
- smiles repr: "COc1cc(/C=C/C(=O)c2cccc(NS(=O)(=O)c3ccc(F)cc3)c2)ccc1O"
  Activity [%]: 71.8
- smiles repr: "COc1cc(/C=C/C(=O)c2cccc(NS(=O)(=O)c3c(Cl)cccc3Cl)c2)ccc1O"
  Activity [%]: 99.4
- smiles repr: "COc1cc(/C=C/C(=O)c2cccc(NS(=O)(=O)c3ccc(OC(F)(F)F)cc3)c2)ccc1O"
  Activity [%]: 76.7
